Test system: LnCAP human prostate cancer cells
Assay: LnCAP Gene Expression
Format: cell-based
Settings: Homo sapiens, LNCaP; CLUSTERIN gene; read-out: LnCAP Gene Expression EC50 (nM) CLUSTERIN
Reported endpoint: EC50 (nM)
# value in nM; strip the unit string

Record request: EC50 value, item `C[C@]1(O)CC[C@H]2[C@@H]3CCC4=CC(=O)CCC4=C3C=C[C@@]21C`
0.37

* * *

Assay: Four Week Oral Toxicity Study in Rats
Assay type: in vivo, rat
Conditions: female, CD [Crl:CD (SD)], rat, plasma, oral; females, 1500 mg/kg/day; read-out: Mean steady-state systemic exposure (AUC0-24 hr)
Reported endpoint: AUC(0-t) (µg·h/mL)
# value in µg·h/mL; strip the unit string

Record request: AUC(0-t) value, item CC(C)OC(=O)N[C@H]1Cc2c(n(Cc3ccccn3)c3ccc(C#N)cc23)C1 (single isomer, unassigned)
217

src = patent US10799478B2
